# experiment description: chemical genetic growth profiling, strain panel (AID 1159580);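 further: tested at 20 µM; growth read once vehicle control cultures reached saturation at 30 °C; lower values mean less growth of the strain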
# setup conditions: S. cerevisiae deletion strains, growth OD, locus YDL074C, strain BRE1
Out of some 5,500 compounds screened, about 2,000 (36%) were called active. Not shown: some 18% with an inconclusive outcome. No stated cut-off is given here; in the data, active means normalized growth mostly below about 0.91 (no sharp cut-off); inconclusive means no clear call, values can overlap the other calls; inactive means mostly above about 0.92. The list shows a part of the results.
Field 'call' accepts active, inactive

Q: // param item: CS(=O)(=O)c1ccc(C2=C(c3ccccc3)C(=O)OC2)cc1 ; yields the recorded call
Result: inactive

Q: Recorded test outcome, item COc1cc2c(cc1OC)[C@@H]1C(=O)c3ccc(OC)c(CC=C(C)C)c3O[C@@H]1CO2
Result: inactive

Q: Answer briefly: the call reported for CCCCCCCCNC(C)C(O)c1ccc(SC(C)C)cc1 (stereo not given) in this assay.
Result: active

Q: Write down the call the test reported for this compound. Item: ClC1=C(Cl)C2(Cl)C3C4CC(C5OC45)C3C1(Cl)C2(Cl)Cl (stereo not given)
Result: inactive

Q: Tell me the recorded outcome of this test for COc1cc2c(cc1OC)[C@@H]1C(=O)c3ccc4oc(C(C)C)cc4c3O[C@@H]1CO2 .
Result: inactive

Q: Lab log entry: CC(CCc1ccccc1)NC(C)C(O)c1ccc(O)cc1 (stereo not given) — outcome as called in the assay?
Result: inactive

Q: Which outcome was entered for the compound CC(NCCc1ccc(O)cc1)C(O)c1ccc(O)cc1 (stereo not given) in this test?
Result: inactive

Q: Each compound tested received a call. Report the one for COc1cc2c(cc1OC)C1C(=O)c3ccc4c(c3OC1CO2)CCC(C)(C)O4 (stereo not given) .
Result: inactive

Q: I'd appreciate the recorded outcome for COc1cc2c(cc1OC)C1C(=O)c3c(cc4c(c3O)C=CC(C)(C)O4)OC1CO2 (stereo not given) from this test.
Result: inactive

Q: Could you check what this test reported for ClC1=C(Cl)C2(Cl)C3C(Cl)C=CC3C1(Cl)C2(Cl)Cl (stereo not given) ?
Result: inactive
